target: Peripheral myelin protein 22 (Rattus norvegicus) (UniProt P25094); experiment: Cell-based HiBiT reporter assay to measure PMP22 protein expression in S16 Pmp22-HiBiT cells; settings: S16 Schwann Pmp22-HiBiT, NanoGlo luminescence, 48 h; series mostly up to 27.9 µM
Sequence (P25094 whole entry, looked up): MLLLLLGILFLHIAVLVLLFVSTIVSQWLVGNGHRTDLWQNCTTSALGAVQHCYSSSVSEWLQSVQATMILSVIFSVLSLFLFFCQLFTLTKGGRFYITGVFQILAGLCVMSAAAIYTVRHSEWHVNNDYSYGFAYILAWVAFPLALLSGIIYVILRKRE
Results filed as inconclusive are left out. Active and inactive are the calls of the source. Calls come from the whole dose curve; as a rule, active = well fitted inhibition curve with a large enough effect; inconclusive = small, poorly fitted or top-dose-only effect; inactive = no such curve, though single readings can be large or run the other way.
Hi! Could you answer with just one of these? active, inactive

Tell me the assay call for CCCn1c(=N)c(C(=O)NC(C)c2ccccc2)cc2c(=O)n3ccccc3nc21 (centres undefined) please.
inactive

Tell me the assay call for `Cc1cccc(-n2c(=O)c3c(c4cc(C)ccc4n3C)n(CC(=O)NCCC3=CCCCC3)c2=O)c1` please.
inactive

Tell me the assay call for `COc1ccccc1Nc1nn2c(=O)c3ccc(C(=O)Nc4ccc(F)cc4)cc3nc2s1` please.
active

Tell me the assay call for `COc1ccccc1-c1cc(C(F)(F)F)nc(S(=O)(=O)CCCC(=O)Nc2ccccc2F)n1` please.
active

Tell me the assay call for `COc1ccccc1-c1cc(C(F)(F)F)nc(S(=O)(=O)CCCC(=O)Nc2ccc(F)cc2F)n1` please.
active

Tell me the assay call for `Cc1ccc(C(=O)Nc2ccc(S(=O)(=O)N3CCC(c4nc5ccccc5s4)CC3)cc2)cc1` please.
inactive

Tell me the assay call for `Cc1ccc(C)c(N2CCN(CCCNC(=O)Cn3c(-c4cccs4)cc4ccccc43)CC2)c1` please.
active

Tell me the assay call for `Cc1ccc(NC(=O)N2CCc3cc(S(=O)(=O)N4CCC(C)CC4)ccc32)cc1F` please.
inactive

Tell me the assay call for `COc1ccc(NC(=O)c2nc(S(=O)(=O)Cc3ccc(C)cc3)ncc2Cl)cc1` please.
active

* * *

biological target: Peripheral myelin protein 22 (Rattus norvegicus) (UniProt P25094); assay: Cell-based HiBiT reporter assay to measure PMP22 protein expression in S16 Pmp22-HiBiT cells; settings: S16 Schwann Pmp22-HiBiT, NanoGlo luminescence, 48 h; series mostly up to 27.9 µM
Records with an inconclusive call do not appear. Activity calls are given as the source filed them. Calls come from the whole dose curve; as a rule, active = well fitted inhibition curve with a large enough effect; inconclusive = small, poorly fitted or top-dose-only effect; inactive = no such curve, though single readings can be large or run the other way.
Hi! Could you answer with just one of these? active, inactive

Tell me the assay call for `COc1ccc(Nc2nc3c(S(=O)(=O)c4ccccc4)nnn3c3ccc(Cl)cc23)cc1` please.
inactive

Tell me the assay call for `Cc1ccc(C)c(NC(=O)Cn2c(=O)n(Cc3ccccc3)c(=O)c3oc4ccccc4c32)c1` please.
active

Tell me the assay call for `Cc1cccc(Nc2c3c(nc4nncn24)CCC3)c1C` please.
inactive

* * *

biological target: Peripheral myelin protein 22 (Rattus norvegicus) (UniProt P25094); experiment: Cell-based HiBiT reporter assay to measure PMP22 protein expression in S16 Pmp22-HiBiT cells; conditions: S16 Schwann Pmp22-HiBiT, NanoGlo luminescence, 48 h; series mostly up to 27.9 µM
Results filed as inconclusive are left out. Activity calls are given as the source filed them. Calls come from the whole dose curve; as a rule, active = well fitted inhibition curve with a large enough effect; inconclusive = small, poorly fitted or top-dose-only effect; inactive = no such curve, though single readings can be large or run the other way.
Hi! Could you answer with just one of these? 1.0 for active, 0.0 for inactive

Tell me the assay call for `CCc1nnc(NC(=O)c2nc(S(C)(=O)=O)ncc2Cl)s1` please.
1.0

Tell me the assay call for Cc1ccc(CN2C(=O)C(O)(c3c(C)[nH]c4ccccc34)c3ccccc32)cc1 (stereo not given) please.
0.0

Tell me the assay call for Cn1c(=O)oc2cc(S(=O)(=O)N3CCCC(C(=O)N4CCN(c5ccc(Cl)cc5)CC4)C3)ccc21 (stereo not given) please.
1.0

Tell me the assay call for Cc1cccc(N2CCN(C(=O)C3CCCN(S(=O)(=O)c4ccc5c(c4)oc(=O)n5C)C3)CC2)c1C (stereo not given) please.
0.0

Tell me the assay call for `CCOc1ccc(NC(=O)CSc2oc(-c3ccc(F)cc3)nc2S(=O)(=O)c2ccc(C)cc2)cc1` please.
0.0

* * *

molecular target: Peripheral myelin protein 22 (Rattus norvegicus) (UniProt P25094); assay: Cell-based HiBiT reporter assay to measure PMP22 protein expression in S16 Pmp22-HiBiT cells; details: S16 Schwann Pmp22-HiBiT, NanoGlo luminescence, 48 h; series mostly up to 27.9 µM
Records with an inconclusive call do not appear. Activity calls are given as the source filed them. Calls follow the shape of the dose curve; as a rule, active = well fitted inhibition curve with a large enough effect; inconclusive = small, poorly fitted or top-dose-only effect; inactive = no such curve, though single readings can be large or run the other way.
Hi! Could you answer with just one of these? 1.0 (active), 0.0 (inactive)

Tell me the assay call for `O=C(Cn1c(-c2cccs2)cc2ccccc21)NCCCN1CCN(c2ccc(F)cc2)CC1` please.
1.0

Tell me the assay call for `Cc1ccc(C)c(NC(=O)Cn2c(=O)n(Cc3ccc4c(c3)OCO4)c(=O)c3ccc(C(=O)NC4CCCCC4)cc32)c1` please.
0.0

Tell me the assay call for `COC(=O)CS(=O)(=O)c1nc2ccccc2nc1N1CCCCC1` please.
1.0

Tell me the assay call for `O=C(NCCCN1CCN(c2ccc(F)cc2)CC1)c1cc2c(Cl)nc3ccccc3c2s1` please.
0.0

Tell me the assay call for `CCc1ccc(NC(=O)Cn2c(=O)n(-c3ccc(OC)cc3)c(=O)c3ccc(C(=O)NCc4ccc(C)cc4)cc32)cc1` please.
0.0

Tell me the assay call for `Cc1cc(C)c(NC(=O)Cn2c(=O)n(Cc3ccco3)c(=O)c3ccc(C(=O)NC4CCCC4)cc32)c(C)c1` please.
0.0

Tell me the assay call for `COc1ccccc1Nc1c2c(nc3ccc(NC(=O)/C=C/c4cccc(OC)c4OC)cc13)CCCC2` please.
1.0

Tell me the assay call for `CCCCS(=O)(=O)c1nc(-c2ccc(Br)cc2)cc(-c2ccccc2)c1C#N` please.
0.0

Tell me the assay call for COc1ccc(Br)cc1CC1C(=O)Nc2ccccc21 (centres undefined) please.
1.0
